The measurements presented in this section are drawn from patent US4616003A.

System: Swiss-Webster male mice
Assay: Mouse Activity and Screen Test (MAST): inhibition of spontaneous locomotor activity
Type: in vivo
Details: 10 mg/kg i.p., 1 hour prior to testing
Each item that follows carries a reported Inhibition of Mouse Locomotor Activity.
Kindly write the number and append the unit.

Previously resolved entries follow.
For record OC[C@@H](O)CNc1ncnc2c1ncn2[C@@H]1O[C@H](CO)[C@@H](O)[C@H]1O [Example 3] the listed Inhibition of Mouse Locomotor Activity is 97%

For record CC1(C)OC[C@H](CNc2ncnc3c2ncn3[C@@H]2O[C@H](CO)[C@@H](O)[C@H]2O)O1 [Example 6] the listed Inhibition of Mouse Locomotor Activity is 47%

Turning now to a further compound:
For record C[C@H]1O[C@@H](n2cnc3c(NCC4COC(C)(C)O4)ncnc32)[C@H](O)[C@@H]1O (stereo partly drawn) [Example 7] the listed Inhibition of Mouse Locomotor Activity is 18%

====

Tested on: Swiss-Webster male mice
Test: Mouse Activity and Screen Test (MAST): inhibition of spontaneous locomotor activity
Assay type: in vivo
Conditions: 3.0 mg/kg i.p., 1 hour prior to testing
Each item that follows carries a reported Inhibition of Mouse Locomotor Activity.
Entry rule: numbers only, all in %.

Previously resolved entries follow.
For record CC(C)CC(=O)OCC(CNc1ncnc2c1ncn2[C@@H]1O[C@H](COC(=O)CC(C)C)[C@@H](OC(=O)CC(C)C)[C@H]1OC(=O)CC(C)C)OC(=O)CC(C)C (some centres unmarked) the listed Inhibition of Mouse Locomotor Activity is 59

For record CC1(C)OCC(CNc2ncnc3c2ncn3[C@@H]2O[C@H](CO)[C@@H](O)[C@H]2O)O1 (some centres unmarked) the listed Inhibition of Mouse Locomotor Activity is 23

Next:
For record OCC(O)CNc1ncnc2c1ncn2[C@@H]1O[C@H](CO)[C@@H](O)[C@@H]1O (stereo partly drawn) [Example 1, (R,S)-N^6 [2,3-Dihydroxypropyl]adenosine] the listed Inhibition of Mouse Locomotor Activity is 99

For record C[C@H]1O[C@@H](n2cnc3c(NCC4COC(C)(C)O4)ncnc32)[C@H](O)[C@@H]1O (some centres unmarked) the listed Inhibition of Mouse Locomotor Activity is 13

For record OC[C@@H](O)CNc1ncnc2c1ncn2[C@@H]1O[C@H](CO)[C@@H](O)[C@H]1O the listed Inhibition of Mouse Locomotor Activity is 97

For record CC1(C)OC[C@@H](CNc2ncnc3c2ncn3[C@@H]2O[C@H](CO)[C@@H](O)[C@H]2O)O1 the listed Inhibition of Mouse Locomotor Activity is 69

For record Nc1nc(NCC(O)CO)c2ncn([C@@H]3O[C@H](CO)[C@@H](O)[C@H]3O)c2n1 (some centres unmarked) the listed Inhibition of Mouse Locomotor Activity is 98

For record CC1(C)OC[C@H](CNc2ncnc3c2ncn3[C@@H]2O[C@H](CO)[C@@H](O)[C@H]2O)O1 the listed Inhibition of Mouse Locomotor Activity is 26

====

Target: adenosine A2 receptor (Rattus norvegicus)
Construct: Brains were thawed and then kept on ice while the striata were dissected out; tissue Pel-Freez (Rogers, Ark.); host or cells: rat striatum (Sprague-Dawley brains; Long-Evans gave essentially identical results)
Sequence (P30543 whole entry): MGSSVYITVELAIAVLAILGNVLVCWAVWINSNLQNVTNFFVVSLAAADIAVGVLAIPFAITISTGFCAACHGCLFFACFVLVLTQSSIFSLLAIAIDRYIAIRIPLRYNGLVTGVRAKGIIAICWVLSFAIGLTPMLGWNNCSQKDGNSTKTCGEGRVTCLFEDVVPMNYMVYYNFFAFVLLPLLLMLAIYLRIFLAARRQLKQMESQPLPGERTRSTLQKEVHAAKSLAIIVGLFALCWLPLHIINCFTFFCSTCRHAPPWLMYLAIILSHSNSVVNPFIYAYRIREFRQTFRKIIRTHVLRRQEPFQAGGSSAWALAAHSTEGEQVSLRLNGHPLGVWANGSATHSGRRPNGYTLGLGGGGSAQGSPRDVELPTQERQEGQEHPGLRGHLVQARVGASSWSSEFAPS
Assay: Adenosine A2 receptor binding (RBA-2), displacement of [3H]NECA
Conditions: 4 nM [3H]NECA, 50 nM N6-cyclopentyladenosine, rat striatal membranes; read-out: RBA-2 (IC50, adenosine A2 receptor affinity)
Each item that follows carries a reported pIC50.
The meaning of pIC50 here: minus log10 of the concentration in molar units.

Previously resolved entries follow.
For record OCC(O)CNc1ncnc2c1ncn2[C@@H]1O[C@H](CO)[C@@H](O)[C@@H]1O (stereo partly drawn) [Example 1, (R,S)-N^6 [2,3-Dihydroxypropyl]adenosine] the listed pIC50 is 4.72

For record CC1(C)OCC(CNc2ncnc3c2ncn3[C@@H]2O[C@H](CO)[C@@H](O)[C@H]2O)O1 (some centres unmarked) the listed pIC50 is 4.62

For record CC1(C)OC[C@@H](CNc2ncnc3c2ncn3[C@@H]2O[C@H](CO)[C@@H](O)[C@H]2O)O1 the listed pIC50 is 4.82

For record Nc1nc(NCC(O)CO)c2ncn([C@@H]3O[C@H](CO)[C@@H](O)[C@H]3O)c2n1 (some centres unmarked) the listed pIC50 is 4.12

Next:
For record CC1(C)OC[C@H](CNc2ncnc3c2ncn3[C@@H]2O[C@H](CO)[C@@H](O)[C@H]2O)O1 the listed pIC50 is 4.70
